Target: Bcl-2 protein (Recombinant Human Bcl-2 Protein) (Homo sapiens, UniProt P10415)
Construct: purchased Novus Biologicals NBP2-34889
Sequence (P10415 whole entry): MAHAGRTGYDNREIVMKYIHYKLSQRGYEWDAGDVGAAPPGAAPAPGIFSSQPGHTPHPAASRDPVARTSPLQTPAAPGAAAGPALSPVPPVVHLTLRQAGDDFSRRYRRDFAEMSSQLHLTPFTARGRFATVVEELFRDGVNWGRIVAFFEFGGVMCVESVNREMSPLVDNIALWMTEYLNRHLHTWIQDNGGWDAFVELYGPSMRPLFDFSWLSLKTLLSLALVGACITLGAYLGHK
Assay: AS-MS evaluation of binding of the Example 4 mixture library (1200 compounds/well) to Bcl-2, ASMS ratio (%)
Settings: AS-MS, Example 4 mixture library, Bcl-2, replicate n = 1
ASMS ratio (%) n = 1 for assorted compounds
readout_type: ASMS ratio (%) n = 1

INSERT INTO assay_data (compound, readout_type, measurement_unit, test_value) VALUES
  ('CCOc1cccc(-c2ccc(C(C)N3CCN(c4ccc(C(=O)NS(=O)(=O)c5ccc(NCCSc6ccccc6)c(C(F)(F)F)c5)cc4)CC3)c(F)c2)c1 (stereo not shown) [Compound B2R099-01]', 'ASMS ratio (%) n = 1', '%', '−12.6'),
  ('CCOc1cncc(C#Cc2ccccc2C(=O)N2CCN(c3ccc(C(=O)NS(=O)(=O)CCC(F)(F)F)cc3)CC2)c1 [Compound B2N030-01]', 'ASMS ratio (%) n = 1', '%', 0.0),
  ('CCOc1cncc(-c2cc(CN3CCN(c4ccc(C(=O)NS(=O)(=O)c5ccc(NCCSc6ccccc6)c(C(F)(F)F)c5)nn4)CC3)cc(C(F)(F)F)c2)c1 [Compound B2R088-01]', 'ASMS ratio (%) n = 1', '%', 35.3),
  ('CCOc1cccc(-c2ccc(CN3CCN(c4ccc(C(=O)NS(=O)(=O)c5ccc(NCCSc6ccccc6)c(C(F)(F)F)c5)cc4)CC3)c3ccccc23)c1 [Compound B2R065-01]', 'ASMS ratio (%) n = 1', '%', 3.8),
  ('CCOc1cccc(-c2cc(CN3CCN(c4ccc(C(=O)NS(=O)(=O)C(C)(C)C)nn4)CC3)cc(OC(C)C)c2)c1 [Compound B2L083-01]', 'ASMS ratio (%) n = 1', '%', 0.0),
  ('CCOc1cccc(-c2cc(CN3CCN(c4ccc(C(=O)NS(=O)(=O)c5ccc(NCCSc6ccccc6)c(C(F)(F)F)c5)cc4)CC3)cc(C(F)(F)F)c2)c1 [Compound B2R061-01]', 'ASMS ratio (%) n = 1', '%', 9.1),
  ('CCOc1cccc(-c2cnn(-c3cc(C(=O)N4CCN(c5ccc(C(=O)NS(=O)(=O)c6ccc(NCCSc7ccccc7)c(C(F)(F)F)c6)cc5)CC4)cc(C(F)(F)F)c3)c2)c1 [Compound B2R043-01]', 'ASMS ratio (%) n = 1', '%', 3.4),
  ('CCOc1cccc(-c2ccc(CN3CCN(c4ccc(C(=O)NS(=O)(=O)c5ccc(NCCSc6ccccc6)c(C(F)(F)F)c5)cc4)CC3)cc2F)c1 [Compound B2R051-01]', 'ASMS ratio (%) n = 1', '%', 12.7),
  ('CCOc1cncc(-c2csc(C(=O)N3CCN(c4ccc(C(=O)NS(=O)(=O)c5ccc(NCCSc6ccccc6)c(C(F)(F)F)c5)cc4)CC3)c2)c1 [Compound B2R024-01]', 'ASMS ratio (%) n = 1', '%', 0.0),
  ('CCOc1cccc(C#Cc2cc(C(=O)N3CCN(c4ccc(C(=O)NS(=O)(=O)c5ccc(NCCSc6ccccc6)c(C(F)(F)F)c5)nn4)CC3)cc(C(F)(F)F)c2)c1 [Compound B2R019-01]', 'ASMS ratio (%) n = 1', '%', 5.2),
  ('CCOc1cncc(-c2ccccc2CN2CCN(c3ccc(C(=O)NS(=O)(=O)c4ccc(NCCSc5ccccc5)c(C(F)(F)F)c4)nn3)CC2)c1 [Compound B2R072-01]', 'ASMS ratio (%) n = 1', '%', 21.4),
  ('CCOc1cncc(-c2ccc(C(C)N3CCN(c4ccc(C(=O)NS(=O)(=O)CCC(F)(F)F)cc4)CC3)cc2)c1 (stereo not shown) [Compound B2N098-01]', 'ASMS ratio (%) n = 1', '%', 0.0),
  ('CCOc1cccc(-c2cc(CN3CCN(c4ccc(C(=O)NS(=O)(=O)c5ccc(NCCSc6ccccc6)c(C(F)(F)F)c5)nn4)CC3)cc(OC(F)(F)F)c2)c1 [Compound B2R089-01]', 'ASMS ratio (%) n = 1', '%', 3.4),
  ('CCOc1cncc(-c2csc(CN3CCN(c4ccc(C(=O)NS(=O)(=O)c5ccc(NCCSc6ccccc6)c(C(F)(F)F)c5)cc4)CC3)c2)c1 [Compound B2R068-01]', 'ASMS ratio (%) n = 1', '%', 0.0),
  ('CCOc1cccc(C#Cc2ccccc2CN2CCN(c3ccc(C(=O)NS(=O)(=O)C(C)(C)C)nn3)CC2)c1 [Compound B2L095-01]', 'ASMS ratio (%) n = 1', '%', 0.0),
  ('CCOc1cccc(C#Cc2ccccc2CN2CCN(c3ccc(C(=O)NS(=O)(=O)c4ccc(NCCSc5ccccc5)c(C(F)(F)F)c4)cc3)CC2)c1 [Compound B2R069-01]', 'ASMS ratio (%) n = 1', '%', 12.3),
  ('CCOc1cccc(-c2csc(CN3CCN(c4ccc(C(=O)NS(=O)(=O)CCC(F)(F)F)cc4)CC3)c2)c1 [Compound B2N067-01]', 'ASMS ratio (%) n = 1', '%', 0.0),
  ('CCOc1cncc(-c2cc(CN3CCN(c4ccc(C(=O)NS(=O)(=O)c5ccc(NCCSc6ccccc6)c(C(F)(F)F)c5)nn4)CC3)cc(OCC)c2)c1 [Compound B2R082-01]', 'ASMS ratio (%) n = 1', '%', 0.0),
  ('CCOc1cccc(C#Cc2cc(C(=O)N3CCN(c4ccc(C(=O)NS(=O)(=O)c5ccc(NCCSc6ccccc6)c(C(F)(F)F)c5)cc4)CC3)cc(C(F)(F)F)c2)c1 [Compound B2R041-01]', 'ASMS ratio (%) n = 1', '%', 18.0),
  ('CCOc1cccc(-c2ccc(CN3CCN(c4ccc(C(=O)NS(=O)(=O)c5ccc(NCCSc6ccccc6)c(C(F)(F)F)c5)nn4)CC3)c(CC)c2)c1 [Compound B2R075-01]', 'ASMS ratio (%) n = 1', '%', 8.6),
  ('CCOc1cncc(-c2ccc(CN3CCN(c4ccc(C(=O)NS(=O)(=O)c5ccc(NCCSc6ccccc6)c(C(F)(F)F)c5)nn4)CC3)cc2C)c1 [Compound B2R074-01]', 'ASMS ratio (%) n = 1', '%', 22.4),
  ('CCOc1cncc(-c2cc(CN3CCN(c4ccc(C(=O)NS(=O)(=O)C(C)(C)C)nn4)CC3)cc(OC(F)(F)F)c2)c1 [Compound B2L090-01]', 'ASMS ratio (%) n = 1', '%', 0.0);
